Source listed as patent US20260092093A1.

- assayed.target: T1, recombinant hIL-18Rα extracellular domain (human, UniProt Q13478 22-329, biotin label (selection) or fluorescent probe (single-clone FACS), sites not given)
- T1 construct: extracellular domain; also called hIL-18Rα ECD; hIL-18Rα-ECD
- T1 sequence (looked up): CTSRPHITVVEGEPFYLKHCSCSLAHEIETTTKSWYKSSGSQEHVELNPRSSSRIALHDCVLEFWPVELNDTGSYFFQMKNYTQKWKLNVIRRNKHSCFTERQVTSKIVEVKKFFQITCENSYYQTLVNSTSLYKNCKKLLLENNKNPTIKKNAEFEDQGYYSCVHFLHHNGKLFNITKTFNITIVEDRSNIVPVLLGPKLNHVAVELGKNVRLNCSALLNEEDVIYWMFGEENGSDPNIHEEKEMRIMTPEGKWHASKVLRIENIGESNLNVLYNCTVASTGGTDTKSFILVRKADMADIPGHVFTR
- experimental.details: single-clone FACS, yeast display, 10 nM labelled hIL-18Rα ECD
parameter: % of fluorescence positive cells (%)
Quick note: give the figure in %, leave out the unit.

Some binders with known % of fluorescence positive cells results, for comparison:
Tell me the measured % of fluorescence positive cells of SEQ ID NO 23 (ligand) YFPKLKSKLSVIRNLNDQVLFIDQGNRPLFEDMTDSDCRDNAPRTIFIISMYKGSGTRGMAVTISVKCEKISTLSCENKIISFKEMNPPDAIKDTKSDIIFFQRSVPGHDNKMQFESSSYEGYFLACEKERDLFKLILKKEDELGDRSIMFTVQNED , please. 90.8

Tell me the measured % of fluorescence positive cells of SEQ ID NO 16 (ligand) YFPKLTSKLSVIRNLNDQVLFIDQGNRPLFEDMTDSDCRDNAPRTIFIISMYKHSTYRGMAVTISVKCEKISTLSCENKIISFKEMNPPDAIKDTKSDIIFFQRSVPGHDNKMQFESSSYEGYFLACEKERDLFKLILKKEDELGDRSIMFTVQKED , please. 93

Now look at this one.
Tell me the measured % of fluorescence positive cells of IL-18 variant polypeptide M11 (ligand) YFPKLRSKLSVIRNLNDQVLFIDQGNRPLFEDMTDSDCRDNAPRTIFIISMYKSSRNRGMAVTISVKCEKISTLSCENKIISFKEMNPPDGIKDTKSDIIFFQTSVPGHDNKMQFESSSYEGYFLACEKERDLFKLILKKEDELGDRSIMFTVQNED , please. 83.6
